These measurements were taken from the MegaScale stability set (Tsuboyama et al. 2023).

B1: EHEE_rd4_0086 (parent)
chain: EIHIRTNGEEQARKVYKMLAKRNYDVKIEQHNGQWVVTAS

Variants of: B1
Test: folding stability dG (cDNA display proteolysis); higher = more stable
Details: PBS, room temperature
Items are presented alongside their recorded folding stability dG.
Use kcal/mol as the unit, but write only the number.

Input line: Quick one: give measured folding stability dG for D25L
Output line: 2.21
